Items are presented alongside their recorded inhibition.
Target: Tyrosine-protein kinase Yes (Homo sapiens);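 note: mean inhibition of YES, from the GSK PKIS dataset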
Conditions: at 0.1 µM
Property: inhibition

- CN(C)CCNC(=O)Nc1ccc(N(C)c2ccnc(Nc3ccc(CS(C)(=O)=O)cc3)n2)cc1: 0.55%
- Cc1nnc(-c2cccc(-c3ccc(C(=O)NCC4CC4)cc3)c2)o1: 5.35%
- CCS(=O)(=O)c1ccc(OC)c(Nc2ncc(-c3cccc(C(C)=O)c3)o2)c1: 18.6%
- CC1(C)CC(n2cnc(-c3ccc(F)cc3)c2-c2ccnc(N)n2)CC(C)(C)N1: 0.2%
- CCS(=O)(=O)c1ccc(OC)c(Nc2ncc(-c3cccc(F)c3)o2)c1: 75.9%
- COc1c(C(N)=O)cc(-c2ccc(Cl)cc2)cc1-c1ccc(S(N)(=O)=O)cc1: 1.57%
- NC(=O)c1ccc2c(-c3ccnc(NCCCO)n3)c(-c3ccc(F)cc3)nn2c1: 2.77%
- Cc1c2ccc(N(C)c3ccnc(Nc4cccc(S(N)(=O)=O)c4)n3)cc2nn1C: 14.9%
- CCCNc1cccc(-n2ncc3c(N/N=C/c4ccncc4)ncnc32)c1: 43.1%
- FC(F)(F)CNc1nccc(-c2cnn3ncccc23)n1: 1.28%

----------
Target: Sphingosine kinase 1 (Homo sapiens) (UniProt Q9NYA1);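 note: mean percent inhibition of SPHK1 activity, measured within the GSK PKIS screening panel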
Sequence (Q9NYA1 whole entry): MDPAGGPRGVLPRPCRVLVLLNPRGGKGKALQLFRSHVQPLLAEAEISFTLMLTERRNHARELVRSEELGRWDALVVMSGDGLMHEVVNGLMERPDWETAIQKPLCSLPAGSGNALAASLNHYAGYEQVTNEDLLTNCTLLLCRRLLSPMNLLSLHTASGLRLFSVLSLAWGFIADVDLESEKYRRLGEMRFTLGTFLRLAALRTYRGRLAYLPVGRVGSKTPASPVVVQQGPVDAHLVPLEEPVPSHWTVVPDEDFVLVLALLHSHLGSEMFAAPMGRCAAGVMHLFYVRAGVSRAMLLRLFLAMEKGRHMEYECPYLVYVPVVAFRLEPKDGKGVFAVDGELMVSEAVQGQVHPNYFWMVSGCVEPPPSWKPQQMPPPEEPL
Details: at 0.1 µM
Items are presented alongside their recorded inhibition.
Property: inhibition

• COc1ccc(-c2nn3ncccc3c2-c2ccnc(Nc3ccc(F)c(F)c3)n2)cc1 = -0.41%
• Cc1ccc(-c2cc3c(NC(=O)C4CC4)ncnc3o2)cc1 = 3.8%
• COc1cccc(Nc2nccc(-c3cnn4ncccc34)n2)c1 = 0.27%
• O=C(O[C@H]1CN[C@H](C#Cc2cc3ncnc(Nc4ccc5c(ccn5Cc5cc(F)ccc5F)c4)c3s2)C1)N1CCOCC1 = 3.05%
• O=C(O[C@H]1CN[C@H](C#Cc2cc3ncnc(Nc4ccc5c(cnn5Cc5ccccc5)c4)c3s2)C1)N1CCOCC1 = 2.86%
• Fc1cccc(COc2ccc(Nc3ncncc3C#Cc3ccccc3)cc2Cl)c1 = 1.58%
• CS(=O)(=O)CCNCc1ccc(-c2ccc3ncnc(Nc4ccc(OCc5cccc(C(F)(F)F)c5)cc4)c3c2)o1 = 1.49%
• CC1=C(C(=O)Nc2ccc3[nH]nc(C)c3c2)C(c2ccc(C(F)(F)F)cc2)CC(=O)N1 (stereo not given) = 0.96%
• Cc1cc(O)cc(C)c1/C=C/c1cncc(C(=O)OC(C)(C)C)c1 = 2.8%
• COc1cccc(-n2ncc3c(N/N=C/c4ccc(C(=O)NCCN(C)C)cc4)ncnc32)c1 = 5.89%
• COC(=O)Nc1nc2ccc(Oc3ccc(NC(=O)Nc4cc(C(F)(F)F)ccc4F)cc3)cc2s1 = -0.71%
• CNC(=O)c1cncc(/C=C/c2ccccc2C)c1 = 0.67%
• O=C(Nc1n[nH]c2nnc(-c3cccnc3)cc12)C1CC1 = 1.36%
• CS(=O)(=O)Nc1ccc(-c2ccc3c(NC(=O)C4CC4)n[nH]c3c2)cc1 = 2.34%
• CN(c1ccc(NC(=O)NCCN2CCOCC2)cc1)c1ccnc(Nc2ccc(CS(C)(=O)=O)cc2)n1 = 0.08%
• O=C1Nc2ccccc2/C1=C1\CCc2cc(O)ccc21 = 1.98%
• CCS(=O)(=O)c1ccc(OC)c(Nc2ncc(-c3cccc(F)c3)o2)c1 = -1.2%
• COc1cc2c(cc1Nc1nc(Nc3cccc(F)c3C(N)=O)c3cc[nH]c3n1)N(C(=O)CN1CCN(C(C)C)CC1)CC2 = 0.42%
• CNC(=O)c1ncccc1Nc1nc(Nc2cc3c(cc2OC)CCCN3C(=O)CN(C)C)nc2[nH]ccc12 = 3.95%
• NS(=O)(=O)c1ccc(N/N=C2\C(=O)Nc3cccc(CCc4ccncc4)c32)cc1 = 1.36%

----------
Target: Ephrin type-A receptor 2 (Homo sapiens) (UniProt P29317);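 note: value is the mean inhibition of EPHA2, measured in the GSK PKIS screen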
Sequence (P29317 whole entry): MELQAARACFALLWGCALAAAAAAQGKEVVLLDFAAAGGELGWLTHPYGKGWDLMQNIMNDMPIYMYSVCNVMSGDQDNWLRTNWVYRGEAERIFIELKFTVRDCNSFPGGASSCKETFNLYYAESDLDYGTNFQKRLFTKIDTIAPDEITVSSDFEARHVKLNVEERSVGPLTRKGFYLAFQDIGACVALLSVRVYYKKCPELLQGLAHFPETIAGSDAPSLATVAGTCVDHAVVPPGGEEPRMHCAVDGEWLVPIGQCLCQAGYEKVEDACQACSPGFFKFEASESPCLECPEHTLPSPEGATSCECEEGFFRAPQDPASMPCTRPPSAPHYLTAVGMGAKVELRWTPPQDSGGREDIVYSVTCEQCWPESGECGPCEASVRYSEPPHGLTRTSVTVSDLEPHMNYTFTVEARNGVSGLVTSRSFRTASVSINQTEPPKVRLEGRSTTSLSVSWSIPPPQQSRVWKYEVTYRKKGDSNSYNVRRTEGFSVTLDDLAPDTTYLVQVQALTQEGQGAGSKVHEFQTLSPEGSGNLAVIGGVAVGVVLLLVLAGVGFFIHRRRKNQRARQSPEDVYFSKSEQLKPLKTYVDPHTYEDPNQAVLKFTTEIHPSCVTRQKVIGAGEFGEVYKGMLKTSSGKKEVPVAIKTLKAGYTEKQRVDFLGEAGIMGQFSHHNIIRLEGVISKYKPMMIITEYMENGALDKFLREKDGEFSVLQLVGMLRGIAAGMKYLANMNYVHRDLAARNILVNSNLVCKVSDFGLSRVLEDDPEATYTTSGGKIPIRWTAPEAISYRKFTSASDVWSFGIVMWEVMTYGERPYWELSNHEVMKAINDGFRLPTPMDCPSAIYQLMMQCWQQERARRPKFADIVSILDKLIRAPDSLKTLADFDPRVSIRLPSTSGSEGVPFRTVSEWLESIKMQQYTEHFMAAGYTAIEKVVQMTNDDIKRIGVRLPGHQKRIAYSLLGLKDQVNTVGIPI
Conditions: at 1 µM
Property: inhibition (%)

* COc1ccccc1-c1cc(/C=C2\C(=O)Nc3ncc(Br)cc32)cc(Br)c1O | 3.18
* COc1cc(N2CCN(C(C)C)CC2)ccc1Nc1nc(Nc2cccc(F)c2C(=O)O)c2cc[nH]c2n1 | -0.38
* CS(=O)(=O)CCNCc1ccoc1-c1ccc2ncnc(Nc3ccc(OCc4ccccc4)cc3)c2c1 | -2.19
* COc1cc(Nc2ncc(-c3ccccc3)o2)cc(OC)c1 | 2.39
* CN1CCC(n2cnc(-c3ccc(F)cc3)c2-c2ccnc(NCCO)n2)CC1 | -0.04
* c1cnn2ncc(-c3ccnc(NCCCN4CCOCC4)n3)c2c1 | -1.53
* Cn1c(-c2nonc2N)nc2cnccc21 | 1.07
* CS(=O)(=O)Nc1ccc(-c2cc(-c3ccccc3)cc(C(N)=O)c2N)cc1 | -2.62
* CS(=O)(=O)CCNCc1ccc(-c2ccc3ncnc(Nc4ccc(OCc5ccccc5)cc4)c3c2)o1 | 1.18
* O=C(Nc1n[nH]c2nnc(-c3cccnc3)cc12)C1CC1 | -2.73
* O=C(O[C@H]1CN[C@H](C#Cc2cc3ncnc(Nc4ccc5c(ccn5Cc5cc(F)ccc5F)c4)c3s2)C1)N1CCOCC1 | 0.06
* CC(C)c1ccc(-c2cc(-c3c[nH]nc3-c3ccccn3)ccn2)cc1 | -2.27
* CCS(=O)(=O)c1ccc(OC)c(Nc2ncc(-c3cccc(F)c3)o2)c1 | 9.85
* Cc1nnc(-c2cccc(-c3ccc(C(=O)NCC4CC4)cc3)c2)o1 | 0.66
* CN(C)CCNC(=O)Nc1ccc(N(C)c2ccnc(Nc3ccc(CS(C)(=O)=O)cc3)n2)cc1 | 1.36
* COC(=O)Nc1nc2ccc(Oc3ccc(NC(=O)Nc4cc(C(F)(F)F)ccc4F)cc3)cc2s1 | 93.5
* CCn1c(-c2nonc2N)nc2cncc(C(=O)NCCNC)c21 | -0.9
* COc1c(C(N)=O)cc(-c2ccc(Cl)cc2)cc1-c1ccc(S(N)(=O)=O)cc1 | 1.53
* O=C(O[C@H]1CN[C@H](C#Cc2cc3ncnc(Nc4ccc5c(cnn5Cc5ccccc5)c4)c3s2)C1)N1CCOCC1 | -2.68
* NS(=O)(=O)c1ccc(N/N=C2\C(=O)Nc3ccc(C(=O)NCc4ccncc4)cc32)cc1 | 1.75
* COc1cc(N2CCN(C(C)C)CC2)ccc1Nc1nc(Nc2cccc3ncccc23)c2cc[nH]c2n1 | -2.47
* N#Cc1ccc2c(-c3ccnc(NC4CC4)n3)c(-c3ccc(F)cc3)nn2c1 | -0.16
* Cc1c2ccc(N(C)c3ccnc(Nc4cccc(S(N)(=O)=O)c4)n3)cc2nn1C | 2.19
* COc1ccc(Nc2ncc(-c3ccccc3)o2)cc1OC | 2.73
* CCS(=O)(=O)c1ccc(OC)c(Nc2ncc(-c3cccc(C(C)=O)c3)o2)c1 | 2.23
* COc1cccc(-n2ncc3c(N/N=C/c4ccc(C(=O)NCCN(C)C)cc4)ncnc32)c1 | 5.44
* NS(=O)(=O)c1ccc(N/N=C2\C(=O)Nc3cccc(CCc4ccncc4)c32)cc1 | -1.98
* COc1cccc(Nc2nccc(-c3cnn4ncccc34)n2)c1 | 12.2
* COc1cc2c(cc1Nc1nc(Nc3cccc(F)c3C(N)=O)c3cc[nH]c3n1)N(C(=O)CN1CCN(C(C)C)CC1)CC2 | 0.53
* CC1(C)CC(n2cnc(-c3ccc(F)cc3)c2-c2ccnc(N)n2)CC(C)(C)N1 | -2.93
* N#Cc1cccc(Nc2ncc(-c3ccccc3)o2)c1 | 0.54
* COC(=O)Nc1nc2cc(Oc3ccc(NC(=O)Nc4ccccc4)cc3)ccc2[nH]1 | 3.37
* CNC(=O)c1ncccc1Nc1nc(Nc2cc3c(cc2OC)CCCN3C(=O)CN(C)C)nc2[nH]ccc12 | 0.22

----------
Target: Serine/threonine-protein kinase TBK1 (Homo sapiens) (UniProt Q9UHD2);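 note: values are mean inhibition of TBK1, screened as part of the GSK published kinase inhibitor set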
Sequence (Q9UHD2 whole entry): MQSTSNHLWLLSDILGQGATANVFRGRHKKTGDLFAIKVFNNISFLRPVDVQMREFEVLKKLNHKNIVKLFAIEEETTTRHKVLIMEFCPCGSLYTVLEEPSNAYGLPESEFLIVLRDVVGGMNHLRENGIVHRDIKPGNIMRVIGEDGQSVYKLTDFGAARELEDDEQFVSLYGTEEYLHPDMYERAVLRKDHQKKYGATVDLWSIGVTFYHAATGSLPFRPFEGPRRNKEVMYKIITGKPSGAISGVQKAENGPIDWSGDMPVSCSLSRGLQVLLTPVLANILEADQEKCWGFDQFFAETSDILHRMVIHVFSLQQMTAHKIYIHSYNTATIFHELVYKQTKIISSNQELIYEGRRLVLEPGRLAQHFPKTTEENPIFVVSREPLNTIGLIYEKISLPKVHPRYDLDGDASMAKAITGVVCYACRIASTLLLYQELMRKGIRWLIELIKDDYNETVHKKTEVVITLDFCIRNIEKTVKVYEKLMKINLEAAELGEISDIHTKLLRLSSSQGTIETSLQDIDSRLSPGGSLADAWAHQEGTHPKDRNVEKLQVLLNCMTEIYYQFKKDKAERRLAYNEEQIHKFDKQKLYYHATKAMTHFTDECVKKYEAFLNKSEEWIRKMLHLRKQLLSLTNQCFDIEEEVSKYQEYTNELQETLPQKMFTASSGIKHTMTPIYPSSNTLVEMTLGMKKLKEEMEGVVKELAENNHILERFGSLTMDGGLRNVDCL
Details: at 1 µM
Property: inhibition

- N#Cc1cccc(Nc2ncc(-c3ccccc3)o2)c1: 3.86%
- CC(C)c1ccc(-c2cc(-c3c[nH]nc3-c3ccccn3)ccn2)cc1: -0.11%
- CN1CCC(n2cnc(-c3ccc(F)cc3)c2-c2ccnc(NCCO)n2)CC1: 7.57%
- COc1ccccc1-c1cc(/C=C2\C(=O)Nc3ncc(Br)cc32)cc(Br)c1O: 6.07%

----------
Target: Tyrosine-protein kinase Srms (Homo sapiens);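 note: reported value is a mean of the inhibition readings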
Settings: at 0.1 µM
Property: inhibition (%)

- NS(=O)(=O)c1ccc(N/N=C2\C(=O)Nc3ccc(C(=O)NCc4ccncc4)cc32)cc1: 0.62
- OCCCNc1nccc(-c2c(-c3ccc(F)cc3)nn3cc(C(F)(F)F)ccc23)n1: -0.48
- CCCNc1cccc(-n2ncc3c(N/N=C/c4ccncc4)ncnc32)c1: 4.26
- N#Cc1cccc(Nc2ncc(-c3ccccc3)o2)c1: 2.21
- COc1ccccc1-c1cc(/C=C2\C(=O)Nc3ncc(Br)cc32)cc(Br)c1O: 2.16
- COc1cc2c(cc1Nc1nc(Nc3cccc(F)c3C(N)=O)c3cc[nH]c3n1)N(C(=O)CN1CCN(C(C)C)CC1)CC2: -1.09
- CCS(=O)(=O)c1ccc(OC)c(Nc2ncc(-c3cccc(F)c3)o2)c1: 3.47
- COC(=O)Nc1nc2ccc(Oc3ccc(NC(=O)Nc4cc(C(F)(F)F)ccc4F)cc3)cc2s1: 0.28
- CCN1CCC(C(=O)Nc2n[nH]c3nnc(-c4cccc(F)c4F)cc23)CC1: 1.44
- CS(=O)(=O)Nc1ccc(-c2ccc3c(NC(=O)C4CC4)n[nH]c3c2)cc1: -0.44
- CNC(=O)c1ncccc1Nc1nc(Nc2cc3c(cc2OC)CCCN3C(=O)CN(C)C)nc2[nH]ccc12: 0.09
- Cc1nnc(-c2cccc(-c3ccc(C(=O)NCC4CC4)cc3)c2)o1: -2.52
- COC(=O)Nc1nc2cc(Oc3ccc(NC(=O)Nc4ccccc4)cc3)ccc2[nH]1: 0.48
- Cc1cc(O)cc(C)c1/C=C/c1cncc(C(N)=O)c1: 5.08
- COc1cccc(Nc2nccc(-c3cnn4ncccc34)n2)c1: 1.25
- CC1=C(C(=O)Nc2ccc3[nH]ncc3c2)C(c2ccc(F)cc2)N=C(c2ccc(C(F)(F)F)nc2)N1 (stereo not given): 1.74
- c1ccc(-c2n[nH]cc2-c2ccnc(-c3ccc(OCCn4ccnc4)cc3)c2)nc1: 0.16
- NS(=O)(=O)c1ccc(N/N=C2\C(=O)Nc3cccc(CCc4ccncc4)c32)cc1: 1.9
- COc1cc(N2CCN(C(C)C)CC2)ccc1Nc1nc(Nc2cccc3ncccc23)c2cc[nH]c2n1: 0.04
- COc1ccc2ncn(-c3cc(O[C@H](C)c4ccccc4C(F)(F)F)c(C(N)=O)s3)c2c1: 3.94
